molecular target: recombinant Tdp1 (residues 149–608) (Homo sapiens, UniProt Q9NUW8); construct: recombinant Tdp1 (residues 149–608) was obtained from GenScript; test: Intrinsic tryptophan fluorescence quenching binding assay; conditions: 10 µM Tdp1, 20 mM Tris, 250 mM NaCl, pH 8; triplicate
Sequence (Q9NUW8 149-608): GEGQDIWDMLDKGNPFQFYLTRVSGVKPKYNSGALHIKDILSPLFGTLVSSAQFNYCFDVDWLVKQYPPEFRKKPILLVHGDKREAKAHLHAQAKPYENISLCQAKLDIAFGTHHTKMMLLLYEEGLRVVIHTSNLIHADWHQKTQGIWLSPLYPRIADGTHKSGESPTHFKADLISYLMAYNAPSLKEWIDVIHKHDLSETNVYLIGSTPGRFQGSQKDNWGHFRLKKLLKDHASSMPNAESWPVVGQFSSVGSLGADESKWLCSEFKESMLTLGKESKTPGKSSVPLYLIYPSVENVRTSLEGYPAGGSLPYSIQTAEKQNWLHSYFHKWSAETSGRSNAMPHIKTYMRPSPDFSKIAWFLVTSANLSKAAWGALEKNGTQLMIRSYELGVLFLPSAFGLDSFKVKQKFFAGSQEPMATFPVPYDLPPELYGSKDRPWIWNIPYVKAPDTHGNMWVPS
recorded-endpoint: Kd (µM)

I = COc1ccc(/C=N/Nc2nc(-c3c(O)c(C)c(O)c4c3OC3=CC(O)=C(C(C)=O)C(=O)[C@@]34C)cs2)cc1COc1ccccc1F [(+)-17c]
II = COc1ccc(/C=N/Nc2nc(-c3c(O)c(C)c(O)c4c3OC3=CC(O)=C(C(C)=O)C(=O)[C@]34C)cs2)cc1Cn1nc(C)c([N+](=O)[O-])c1C [(−)-17k]
Input line: When their Kd values are compared, which is larger, I or II ? # reply format: chosen label
Output line: I
(I: 204 µM, II: 142 µM)
